FYI, the data here is from patent US20050107289A1.

Test system: S. aureus ATCC 33592
Experiment: microbe, parasite or virus in culture
Type: cell-based, Staphylococcus aureus
Details: ATCC 33592
Where a name gives a salt, the structure may show the parent alone. Non-standard residues stand in square brackets, D forms with d. Residues, ends and D or L forms follow the SMILES beside them.
I'd be grateful if you could share measured S. aureus ATCC 33592 MIC for these entries.
One number for each entry, in µg/mL.

Some compounds with known S. aureus ATCC 33592 MIC results, for comparison:
# compound CC(C)C[C@H]1NC(=O)[C@H](Cc2c[nH]c3ccccc23)NC(=O)[C@@H](CCCCN)NC(=O)[C@H](CCCNC(=N)N)NC(=O)[C@@H](CCCNC(=N)N)NC(=O)[C@H](Cc2c[nH]c3ccccc23)NC(=O)[C@@H](CC(C)C)NC(=O)[C@H](Cc2c[nH]c3ccccc23)NC1=O [[RRKWLWLW]-HCl] (cyclo([dR]R[dK]W[dL]W[dL]W)) ; its S. aureus ATCC 33592 MIC = 8

Field S. aureus ATCC 33592 MIC (entry CC(C)C[C@H]1NC(=O)[C@H](Cc2c[nH]c3ccccc23)NC(=O)[C@@H](CCCCN)NC(=O)[C@H](CO)NC(=O)[C@@H](CCCCN)NC(=O)[C@H](Cc2c[nH]c3ccccc23)NC(=O)[C@@H](CC(C)C)NC(=O)[C@H](Cc2c[nH]c3ccccc23)NC1=O [[KSKWLWLW]-HCl, D-Lys-Ser-D-Lys-Trp-D-Leu-Trp-D-Leu-Trp] (cyclo([dK]S[dK]W[dL]W[dL]W)) ) reads 4

Reported S. aureus ATCC 33592 MIC ( CC(C)C[C@H]1NC(=O)[C@H](CCCCN)NC(=O)[C@@H](CCCCN)NC(=O)[C@H](Cc2c[nH]c3ccccc23)NC(=O)[C@@H](CC(C)C)NC(=O)[C@H](Cc2c[nH]c3ccccc23)NC1=O [[KKLWLW]-HCl, cyclo-(D-Lys-Lys-D-Leu-Trp-D-Leu-Trp)] (cyclo(K[dL]W[dL]W[dK])) ) = 32

Further cases:
The value of S. aureus ATCC 33592 MIC measured for the compound CC(C)C[C@H]1NC(=O)[C@H](CCCNC(=N)N)NC(=O)[C@@H](CCCNC(=N)N)NC(=O)[C@H](Cc2c[nH]c3ccccc23)NC(=O)[C@@H](CC(C)C)NC(=O)[C@H](Cc2c[nH]c3ccccc23)NC1=O [[RRLWLW]-HCl, cyclo-(D-Arg-Arg-D-Leu-Trp-D-Leu-Trp)] (cyclo(R[dL]W[dL]W[dR])) turned out to be 32

---

Tested on: S. aureus (MRSA) ATCC 33591
Assay type: cell-based, Staphylococcus aureus
Settings: ATCC 33591
Non-standard residues stand in square brackets, D forms with d. Residues, ends and D or L forms follow the SMILES beside them.
Exam item: assign Satisfied to entries whose S. aureus (MRSA) MIC is below 80 µg/mL and Not satisfied to entries at or above 80 µg/mL. Note that a value of exactly 80 µg/mL receives Not satisfied.

Problem: For the compound CC(C)C[C@H]1NC(=O)[C@H](Cc2c[nH]c3ccccc23)NC(=O)[C@@H](CO)NC(=O)[C@H](CCCCN)NC(=O)[C@@H](CO)NC(=O)[C@H](Cc2c[nH]c3ccccc23)NC(=O)[C@@H](CC(C)C)NC(=O)[C@H](Cc2c[nH]c3ccccc23)NC1=O [SEQ ID NO:5] (cyclo(K[dS]W[dL]W[dL]W[dS])) , is S. aureus (MRSA) MIC under 80 µg/mL? Satisfied

Dear reviewer, please state whether CC(C)C[C@H]1NC(=O)[C@H](Cc2c[nH]c3ccccc23)NC(=O)[C@@H](CCCCN)NC(=O)[C@H](CCCCN)NC(=O)[C@@H](CCCCN)NC(=O)[C@H](Cc2c[nH]c3ccccc23)NC(=O)[C@@H](CC(C)C)NC(=O)[C@H](Cc2c[nH]c3ccccc23)NC1=O [SEQ ID NO:17] (cyclo([dK]K[dK]W[dL]W[dL]W)) has S. aureus (MRSA) MIC strictly beneath 80 µg/mL. Satisfied

Lab log: compare recorded S. aureus (MRSA) MIC with 80 µg/mL; is it strictly lower for CC(C)C[C@H]1NC(=O)[C@H](Cc2c[nH]c3ccccc23)NC(=O)[C@@H](Cc2c[nH]cn2)NC(=O)[C@H](CCCCN)NC(=O)[C@@H](CCC(=O)O)NC(=O)[C@H](Cc2c[nH]c3ccccc23)NC(=O)[C@@H](CC(C)C)NC(=O)[C@H](Cc2c[nH]c3ccccc23)NC1=O [SEQ ID NO:16] (cyclo(K[dH]W[dL]W[dL]W[dE])) ? Not satisfied

Lab note: confirm whether the reported S. aureus (MRSA) MIC for this compound is below 80 µg/mL, equality not counting. compound: CC(C)C[C@H]1NC(=O)[C@H](Cc2c[nH]c3ccccc23)NC(=O)[C@@H](CCCNC(=N)N)NC(=O)[C@H](CCC(N)=O)NC(=O)[C@@H](CCCCN)NC(=O)[C@H](Cc2c[nH]c3ccccc23)NC(=O)[C@@H](CC(C)C)NC(=O)[C@H](Cc2c[nH]c3ccccc23)NC1=O [SEQ ID NO:8] (cyclo([dK]Q[dR]W[dL]W[dL]W)) Satisfied

# check: S. aureus (MRSA) MIC < 80 µg/mL for CC(C)C[C@H]1NC(=O)[C@H](Cc2c[nH]c3ccccc23)NC(=O)[C@@H](CO)NC(=O)[C@H](Cc2c[nH]cn2)NC(=O)[C@@H]([C@H](C)O)NC(=O)[C@H](Cc2c[nH]c3ccccc23)NC(=O)[C@@H](CC(C)C)NC(=O)[C@H](Cc2c[nH]c3ccccc23)NC1=O [SEQ ID NO:6] (cyclo(H[dS]W[dL]W[dL]W[dT])) Not satisfied

API: the following record is the query input.
Strictly below 80 µg/mL in S. aureus (MRSA) MIC? CC(C)C[C@H]1NC(=O)[C@H](Cc2c[nH]c3ccccc23)NC(=O)[C@@H](CCCCN)NC(=O)[C@H](CCCNC(=N)N)NC(=O)[C@@H](CCCNC(=N)N)NC(=O)[C@H](Cc2c[nH]c3ccccc23)NC(=O)[C@@H](CC(C)C)NC(=O)[C@H](Cc2c[nH]c3ccccc23)NC1=O [SEQ ID NO:18] (cyclo([dR]R[dK]W[dL]W[dL]W)) Satisfied

---

System: S. aureus MRSA (ATCC 33591)
Experiment: Mouse peritonitis model, MRSA protection
Assay type: in vivo, mice
Non-standard residues stand in square brackets, D forms with d. Residues, ends and D or L forms follow the SMILES beside them.
Please go through the items and note down their PD50 S. aureus MRSA infection.
One number for each entry, in mg/kg.

For reference, reported PD50 S. aureus MRSA infection for CC(C)C[C@H]1NC(=O)[C@H](Cc2c[nH]c3ccccc23)NC(=O)[C@@H](CCCCN)NC(=O)[C@H](CO)NC(=O)[C@@H](CCCCN)NC(=O)[C@H](Cc2c[nH]c3ccccc23)NC(=O)[C@@H](CC(C)C)NC(=O)[C@H](Cc2c[nH]c3ccccc23)NC1=O [SEQ ID NO:12, D-Lys-Ser-D-Lys-Trp-D-Leu-Trp-D-Leu-Trp] (cyclo([dK]S[dK]W[dL]W[dL]W)) stands at 20

Let us move to another entry and its PD50 S. aureus MRSA infection.
# molecule CC(C)C[C@H]1NC(=O)[C@H](Cc2c[nH]c3ccccc23)NC(=O)[C@@H](CCCNC(=N)N)NC(=O)[C@H](CCC(N)=O)NC(=O)[C@@H](CCCCN)NC(=O)[C@H](Cc2c[nH]c3ccccc23)NC(=O)[C@@H](CC(C)C)NC(=O)[C@H](Cc2c[nH]c3ccccc23)NC1=O [SEQ ID NO:8] (cyclo([dK]Q[dR]W[dL]W[dL]W)) ; its PD50 S. aureus MRSA infection = 7

---

Test system: murine red blood cells
Assay: Red blood cell hemolysis
Type: cell-based, mouse
Non-standard residues stand in square brackets, D forms with d. Residues, ends and D or L forms follow the SMILES beside them.
measured metric: RBC Hemolysis (HD50)

Fill in RBC Hemolysis (HD50) for each of the 2 compounds listed.
1. CC(C)C[C@H]1NC(=O)[C@H](Cc2c[nH]c3ccccc23)NC(=O)[C@@H](CCCCN)NC(=O)[C@H](CCCNC(=N)N)NC(=O)[C@@H](CCCNC(=N)N)NC(=O)[C@H](Cc2c[nH]c3ccccc23)NC(=O)[C@@H](CC(C)C)NC(=O)[C@H](CCCCN)NC1=O [SEQ ID NO:111, [RRKWLKLW]] (cyclo([dR]R[dK]W[dL]K[dL]W))
2. CC(C)C[C@H]1NC(=O)[C@H](Cc2c[nH]c3ccccc23)NC(=O)[C@@H](CCCCN)NC(=O)[C@H](CCCNC(=N)N)NC(=O)[C@@H](CCCNC(=N)N)NC(=O)[C@H](Cc2c[nH]c3ccccc23)NC(=O)[C@@H](CC(C)C)NC(=O)[C@H](CCC(=O)O)NC1=O [SEQ ID NO:109, [RRKWLELW]] (cyclo([dR]R[dK]W[dL]E[dL]W))

[100, 100]
